# ASSAY: Cytotoxicity against african green monkey Vero cells assessed as minimal toxic dosed detached 100% of the cell monolayer
# SETUP_CONDITIONS: chlorocebus sabaeus, read-out: CC100
METRIC_NAME: MCC

Request the reported MCC associated with CC(=O)OC[C@]1(C)CCC[C@]2(C)c3ccc(C(C)C)cc3CC[C@@H]12 [DEHYDROABIETINOL ACETATE]
> 50 µg/mL

Also check Nc1nc2c(ncn2COCCO)c(=O)[nH]1
> 600 µg/mL

Query CC(C)c1ccc2c(c1)C(=O)C[C@H]1[C@](C)(CO)CCC[C@]21C next
25 µg/mL

Same again, this time with CC(C)c1ccc2c(c1)[C@H](O)C[C@H]1[C@](C)(CO)CCC[C@]21C
25 µg/mL

Now consider CC(C)c1ccc2c(c1)CC[C@H]1[C@](C)(C(=O)O)CCC[C@]21C [DEHYDROABIETIC ACID] .
> 50 µg/mL

Moving on to the next compound: CC(C)c1ccc2c(c1)CC[C@H]1[C@](C)(CO)CCC[C@]21C
50 µg/mL

Okay, and CC(C)c1ccc2c(c1)CC[C@H]1[C@](C)(COC(=O)c3ccccc3)CCC[C@]21C [DEHYDROABIETINOLBENZOATE] ?
> 50 µg/mL

Try CC(C)c1ccc2c(c1)CC[C@H]1[C@](C)(C=O)CCC[C@]21C [DEHYDROABIETINAL] next.
50 µg/mL

Then what about the compound COC(=O)[C@]1(C)CCC[C@]2(C)c3ccc(C(C)C)cc3CC[C@@H]12 [METHYL DEHYDROABIETATE] ?
> 50 µg/mL
